assay: HPLC-MS measurement of tRV in human serum after 100 mg tRV capsule (nutraceutical study); assay type: in vivo; conditions: human, serum, oral, 100 mg, 2 h after 100 mg tRV; volunteers 1 and 2
attribute-measured: concentration at 2 h
Note: state the figure and append the unit.

Query string: Which concentration at 2 h is reported for this molecule? Oc1ccc(/C=C/c2cc(O)cc(O)c2)cc1 [tRV, trans-Resveratrol]
Result string: 0.012 µg/mL

---

assay: anti-tRV ELISA measurement of tRV in human serum after 100 mg tRV capsule (nutraceutical study); assay type: in vivo; details: human, serum, oral, 100 mg, 30 min after 100 mg tRV; volunteers 1 and 2
attribute-measured: concentration at 30 min (ng/mL)
Please respond with the number in ng/mL and leave the unit unwritten.

Query string: Entry under review: Oc1ccc(/C=C/c2cc(O)cc(O)c2)cc1 [tRV, trans-Resveratrol] . Reported concentration at 30 min?
Result string: 140

Reference for the values: patent US9547001B2
